Just for reference, PubChem BioAssay AID1259407 is where these values come from.

# Test system: CCRIS mutagenicity, Ames/micronucleus/aberration tests
# assay overview: CCRIS mutagenicity studies
# test context: Test System: E. COLI; Strain/Indicator: WP2 UVRA; Metabolic Activation: RAT, LIVER, S-9, AROCLOR 1254; Method: STANDARD PLATE
Active and inactive are the calls of the source. How the calls were made is not given here.
Parameter call: string, one of yes = active, no = inactive

Ask: What classification did `CN(C)c1ccc(C(=O)c2ccc(N(C)C)cc2)cc1` end up with in this test?
Reply: no

Ask: Do the same for `Nc1cccc2c(N)cccc12` please
Reply: no

Ask: Now the molecule O=CC1CO1 (stereo not given)
Reply: yes

Ask: Moving on to `Nc1ccc2ccccc2c1`
Reply: no

Ask: What do you have for `COc1ccc(N)cc1` ?
Reply: no

====

# Test system: CCRIS mutagenicity, Ames/micronucleus/aberration tests
# assay overview: CCRIS mutagenicity studies
# test context: Test System: AMES SALMONELLA TYPHIMURIUM; Strain/Indicator: TA1538; Metabolic Activation: RAT, LIVER, S-9, AROCLOR 1254; Method: STANDARD PLATE
Calls of active or inactive are those of the source. The rule behind the calls is not given here.
Outcomes you can answer with include only these: Yes for active, No for inactive

Ask: Identify the outcome logged in this assay for the compound shown: `NCC(=O)O`
Reply: No

Ask: // query: `O=C([O-])c1cc(N=Nc2ccc(-c3ccc(N/N=c4/c(=O)cc/c(=N\Nc5cc(S(=O)(=O)[O-])ccc5[O-])c4=O)cc3)cc2)ccc1[O-].[Cu+2].[Na+].[Na+]`
Reply: No

Ask: Quick one: `Nc1ccc(Cl)cc1`
Reply: No

Ask: Same question, `Cc1cc(-c2ccc(N)c(C)c2)ccc1N` this time
Reply: Yes

Ask: Can you handle `CCOC(=O)CC(=O)CCl` next?
Reply: No

Ask: Subsequent entry: `CCN(CC)c1ccc2c(C(F)(F)F)cc(=O)oc2c1`
Reply: No

Ask: What about this compound? `O=C1C=CC(=O)CC(=O)C1`
Reply: No

====

# System: CCRIS mutagenicity, Ames/micronucleus/aberration tests
# assay overview: CCRIS mutagenicity studies
# test context: Test System: AMES SALMONELLA TYPHIMURIUM; Strain/Indicator: TA100; Metabolic Activation: NONE; Method: PREINCUBATION
Calls of active or inactive are those of the source. How the calls were made is not given here.
API: response.call in active, inactive

Ask: Can you look up the reported call for `C=CC(=O)OCCCCCCOC(=O)C=C` for me?
Reply: inactive

Ask: Ok, now `CC(=O)OCc1c(O)c(C(=O)O)c(C)c2c1OC(=O)c1c(C)cc(O)c(C=O)c1O2`
Reply: active

Ask: CCCCCCCCCCCCCCCCC1CO1 (stereo not given) , same question.
Reply: inactive

Ask: Same lookup for `CCN(Cc1ccccc1)c1ccccc1` , please.
Reply: inactive

Ask: Check CN1C(CSCC(F)(F)F)Nc2cc(Cl)c(S(N)(=O)=O)cc2S1(=O)=O (stereo not given) too.
Reply: inactive

Ask: And what about the compound `c1cnc2c(c1)ccc1cccnc12` ?
Reply: inactive

Ask: Cool, now `COCCO`
Reply: inactive

Ask: Request: CC1(C)CC(N)CC(C)(CN)C1 (stereo not given)
Reply: inactive

Ask: Same question, `CC(C)(N=O)[N+](=O)[O-]` this time
Reply: inactive

Ask: // repeat for `Oc1ccc2[nH]ccc2c1` and report
Reply: inactive

Ask: Thanks! And CC(O)CC(=O)Nc1ccc(O)cc1 (stereo not given) ?
Reply: inactive

Ask: Then COc1cccc2c1OC1(C)OOC21C (stereo not given) ?
Reply: active

Ask: Then `O=[N+]([O-])c1ccccc1Nc1ccccc1` ?
Reply: inactive

Ask: Then `CCCCCCCCCCCCCCCCCC[N+](C)(C)Cc1ccccc1` ?
Reply: inactive

Ask: Now the same for `CC(C)NC(C)C`
Reply: inactive

Ask: Another compound: `O[C@H]1[C@H]2O[C@H]2c2c(ccc3ccccc23)[C@@H]1O`
Reply: active

Ask: Again, but for `NNc1nncc2cnccc12`
Reply: active

Ask: Request: `O=C(O)c1ccc(Cl)c([N+](=O)[O-])c1`
Reply: active

Ask: Now this one: `OCCS`
Reply: inactive

Ask: Another compound to check: `CC1=CC(=O)c2c(O)cccc2C1=O`
Reply: inactive

Ask: Also, `N[C@@H](CC(=O)O)C(=O)O` please.
Reply: inactive

Ask: Then this compound: `Cc1[nH]ccc2c1[nH]c1cc(=O)ccc12`
Reply: inactive

Ask: Note, next up: `CC(=O)NS(=O)(=O)c1ccc(N)cc1`
Reply: inactive

Ask: Lookup `Oc1cc(O)c2ccccc2c1`
Reply: active

Ask: Also, `Clc1ccc(C(Cl)(Cl)Cl)cc1` please.
Reply: inactive

Ask: Repeat with `COC(=O)[C@H]1[C@H]2C[C@@H]3c4[nH]c5cc(OC)ccc5c4CCN3C[C@H]2C[C@@H](OC(=O)/C=C/c2cc(OC)c(OC)c(OC)c2)[C@@H]1OC`
Reply: inactive

Ask: Another: `Nc1ncnc2c1nc(-c1ccc([N+](=O)[O-])cc1)n2-c1ccc([N+](=O)[O-])cc1`
Reply: active

Ask: Here is the next compound: c1ccc(-c2ccc(CC3CO3)cc2)cc1 (stereo not given)
Reply: active

Ask: Check `CCCCC1C(=O)N(c2ccccc2)N(c2ccccc2)C1=O` too.
Reply: inactive

Ask: Follow-up item: `COc1cc(C(C)=O)ccc1O`
Reply: inactive

Ask: Similarly, `CCCCCN` ?
Reply: inactive

Ask: Lookup ClC1=C(Cl)C2(Cl)C3C(Cl)C(Cl)CC3C1(Cl)C2(Cl)Cl (stereo not given)
Reply: inactive

Ask: Next: `COc1c(C(C)(C)C)cc([N+](=O)[O-])c(C)c1[N+](=O)[O-]`
Reply: inactive

Ask: # iterate: `ClCC1(CCl)[C@H]2CC(Cl)(Cl)[C@]1(CCl)[C@@H](Cl)[C@@H]2Cl`
Reply: inactive

Ask: # iterate: `CC(=O)[O][Hg][c]1ccccc1`
Reply: inactive

Ask: Here is the next compound: OC1C=C2c3ccc4ccccc4c3-c3cccc(c32)C1O (stereo not given)
Reply: active

Ask: What do you get for `Cc1cc(N)c(S(=O)(=O)O)cc1Cl` ?
Reply: inactive

Ask: Then this compound: `N[C@@H](Cc1c[nH]c2ccccc12)C(=O)O`
Reply: inactive

Ask: Also need `O=c1[nH]c(=O)[nH]c(=O)[nH]1` , thanks.
Reply: inactive

Ask: Now consider `CCCCN(N=O)/C(N)=N/[N+](=O)[O-]` and answer again.
Reply: active
